Biological target: von Hippel-Lindau disease tumor suppressor/Serine/threonine-protein kinase TBK1 (Homo sapiens, UniProt Q9UHD2+P40337)
Sequence (Q9UHD2 whole entry): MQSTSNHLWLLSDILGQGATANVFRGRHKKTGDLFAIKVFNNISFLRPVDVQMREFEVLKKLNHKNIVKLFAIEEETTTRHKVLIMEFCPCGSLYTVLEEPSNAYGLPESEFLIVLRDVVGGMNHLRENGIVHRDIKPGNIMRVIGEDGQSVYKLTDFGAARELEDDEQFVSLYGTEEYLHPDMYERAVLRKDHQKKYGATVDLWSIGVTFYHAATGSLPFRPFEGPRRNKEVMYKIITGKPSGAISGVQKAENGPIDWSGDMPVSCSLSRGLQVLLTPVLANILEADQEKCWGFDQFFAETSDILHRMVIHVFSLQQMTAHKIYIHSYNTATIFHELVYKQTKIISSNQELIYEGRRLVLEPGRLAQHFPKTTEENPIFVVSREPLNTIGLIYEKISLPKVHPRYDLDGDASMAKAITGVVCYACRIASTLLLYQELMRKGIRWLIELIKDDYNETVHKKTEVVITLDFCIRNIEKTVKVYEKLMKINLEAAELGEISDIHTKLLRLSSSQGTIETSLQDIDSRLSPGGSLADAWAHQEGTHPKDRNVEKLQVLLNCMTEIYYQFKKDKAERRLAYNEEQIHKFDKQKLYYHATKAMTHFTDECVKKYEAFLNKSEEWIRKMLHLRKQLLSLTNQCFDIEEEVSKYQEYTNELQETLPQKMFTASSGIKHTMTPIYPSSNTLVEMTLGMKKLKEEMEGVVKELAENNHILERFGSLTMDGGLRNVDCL
Sequence (P40337 whole entry): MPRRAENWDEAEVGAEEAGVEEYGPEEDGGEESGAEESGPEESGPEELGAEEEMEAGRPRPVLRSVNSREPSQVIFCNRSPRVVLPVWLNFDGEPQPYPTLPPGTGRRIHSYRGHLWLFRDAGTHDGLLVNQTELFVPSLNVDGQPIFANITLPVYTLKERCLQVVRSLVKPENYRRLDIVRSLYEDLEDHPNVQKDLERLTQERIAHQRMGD
Assay: Induction of VHL-mediated TBK1 degradation in human Panc02.13 cells after 16 hrs by Western blot method
Type: cell-based
The following compounds are listed with their measured log10 of DC50 values.
Units before log transform: nM; reported quantity: DC50; transform: log10.

Take a look at these entries with their results.
INSERT INTO results (entry_smiles, property_label, reported_result) VALUES
  ('Cc1ncsc1-c1ccc(CNC(=O)[C@@H]2C[C@@H](O)CN2C(=O)[C@@H](NC(=O)COCCCOCCCCOCCCOc2ccc(Nc3ncc(F)c(NCCCN(C)C(=O)C4CCC4)n3)cc2)C(C)(C)C)cc1', 'log10 of DC50', 2.45),
  ('Cc1ncsc1-c1ccc(CNC(=O)[C@@H]2C[C@@H](O)CN2C(=O)[C@@H](NC(=O)CCCCCOCCCCOCCCCOc2ccc(Nc3ncc(Br)c(NCCCN(C)C(=O)C4CCC4)n3)cc2)C(C)(C)C)cc1', 'log10 of DC50', 1.98),
  ('CCC[C@H](NC(=O)COCCCOCCCCOCCCOc1ccc(Nc2ncc(Br)c(NCCCN(C)C(=O)C3CCC3)n2)cc1)C(=O)N1C[C@H](O)C[C@H]1C(=O)NCc1ccc(-c2scnc2C)cc1', 'log10 of DC50', 2.46);

Could you tell me which log10 of DC50 is on file for Cc1ncsc1-c1ccc(CNC(=O)[C@@H]2C[C@@H](O)CN2C(=O)[C@@H](NC(=O)COCCCOCCCCOCCCOc2ccc(Nc3ncc(C(F)(F)F)c(NCCCN(C)C(=O)C4CCC4)n3)cc2)C(C)(C)C)cc1 ?
1.46

Please give the result for Cc1ncsc1-c1ccc(CNC(=O)[C@@H]2C[C@@H](O)CN2C(=O)[C@@H](NC(=O)COCCOCCCCOCCCCOCCOc2ccc(Nc3ncc(Br)c(NCCCN(C)C(=O)C4CCC4)n3)cc2)C(C)(C)C)cc1 too.
0.78
